Measured values drawn from patent US8772282B2 for this set.

system tested: native, endogenous murine BACE1 (Mus musculus (Mouse))
Sequence (P56818 46-501): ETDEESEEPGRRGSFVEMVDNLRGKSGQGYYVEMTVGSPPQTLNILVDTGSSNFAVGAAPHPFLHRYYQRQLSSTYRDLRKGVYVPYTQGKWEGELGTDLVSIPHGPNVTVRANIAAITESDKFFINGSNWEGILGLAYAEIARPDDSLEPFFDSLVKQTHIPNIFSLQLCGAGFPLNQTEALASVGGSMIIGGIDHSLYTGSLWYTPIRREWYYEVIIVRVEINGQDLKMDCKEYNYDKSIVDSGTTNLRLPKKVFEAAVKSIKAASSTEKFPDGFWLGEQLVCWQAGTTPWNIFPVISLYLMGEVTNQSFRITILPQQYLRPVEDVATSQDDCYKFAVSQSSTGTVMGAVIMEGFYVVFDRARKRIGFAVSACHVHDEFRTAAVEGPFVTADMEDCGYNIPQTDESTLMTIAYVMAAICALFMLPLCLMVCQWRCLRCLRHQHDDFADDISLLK
experiment summary: PDAPP Primary Neuronal Assay (Abeta lowering, ELISA)
Assay type: cell-based
measurement context: primary cortical neurons from PDAPP embryos, 24 h, Abeta 1-42; Mean ± SEM; read-out: PDAPP Neuron A-beta (1-42) ELISA IC50
pIC50: −log10 of the molar value. Counter-ions that a name gives are not always drawn.
measure: pIC50

A = Cl.NC1=N[C@@]2(c3ccccc3)CN(c3ncc(F)cn3)C[C@H]2CS1 [Example 1, hydrochloride]
B = NC1=N[C@@]2(c3ccc(F)s3)CN(c3ncc(F)cn3)C[C@H]2CS1 [Example 32, hydrochloride]
Between A and B , which one shows the smaller pIC50 number? Pick one and reply with its label.
B
(B: 6.61, A: 6.99)
